Experiment: compound effects on differentiated 3T3-L1 adipocyte viability – cell-based, 3T3-L1 adipocytes, calcein-AM fluorescence, 48 h, basal, profiling panel (AID 1163); also: test concentration not given here
Conditions: 3T3-L1 adipocytes viability, higher = more signal
Threshold check on z-score: strictly below 1 is YES; on or above 1 is NO.

Before answering, review these 3 worked examples.
[
  {
    "COMPOUND": "C=CCNC(=O)[C@H]1[C@@H]2C(=O)O[C@@H](c3ccccc3)[C@@H](c3ccccc3)N2[C@@H](c2ccc(OCCO)cc2)[C@]12C(=O)Nc1ccccc12",
    "CLASS ASSIGNMENT": "NO"
  },
  {
    "COMPOUND": "NC(=O)NCC#Cc1ccc2c(c1)[C@]1(C(=O)N2)[C@H](c2ccc(OCCO)cc2)N2[C@H](c3ccccc3)[C@H](c3ccccc3)OC(=O)[C@H]2[C@@H]1C(=O)O",
    "CLASS ASSIGNMENT": "NO"
  },
  {
    "COMPOUND": "C=C(COC)C(=O)CC[C@@H](OC(=O)c1ccccc1-c1ccccc1C(=O)O)c1ccc(OCCO)cc1",
    "CLASS ASSIGNMENT": "NO"
  }
]

Take the compound CCCCCC1=C2CNC(CC(C)C)(C(=O)OC)C=C2C(C)C1=O (configuration not stated) and say whether its z-score is less than 1.
YES

Take the compound `O=C(NCCN1CCOCC1)[C@@H]1c2ccccc2C(=O)N(Cc2ccc(OC(F)(F)F)cc2)[C@H]1c1ccc(CO)cc1` and say whether its z-score is less than 1.
NO

Take the compound `CN(C)CCCCNC(=O)[C@H]1C[C@H]2C(=O)NCC(=O)N2[C@H]1c1ccc(O)cc1` and say whether its z-score is less than 1.
YES
